- targetOrTestSystem: human CB2 (Homo sapiens)
- Construct: expressed in transfected cells; host or cells: CHO cells
- Sequence (P34972 whole entry): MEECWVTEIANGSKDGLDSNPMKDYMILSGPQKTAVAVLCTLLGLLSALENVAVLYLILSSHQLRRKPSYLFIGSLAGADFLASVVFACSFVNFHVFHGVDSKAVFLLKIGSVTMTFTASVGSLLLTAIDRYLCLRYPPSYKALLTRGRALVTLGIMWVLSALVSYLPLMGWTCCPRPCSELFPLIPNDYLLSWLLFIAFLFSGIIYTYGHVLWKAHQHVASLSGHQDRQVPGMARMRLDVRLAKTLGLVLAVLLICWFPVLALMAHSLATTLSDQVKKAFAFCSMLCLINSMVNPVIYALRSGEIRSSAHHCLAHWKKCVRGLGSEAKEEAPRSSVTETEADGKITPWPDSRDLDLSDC
- protocolDescription: Human CB2-mediated cyclic AMP (cAMP) production inhibition assay
- Type: cell-based
- testSettings: CHO, 30 nM test substance; human CB2-expressing CHO cells; forskolin 0.5 μM; 30 minutes at room temperature; read-out: Inh (%): inhibitory rate of cAMP increase
measuredAttribute: inhibition at 0.03 µM

[[record]]
smilesrepresentation = "CC1(C)CCN(c2ncc(C(=O)N3CCS(=O)(=O)CC3)c(C(F)(F)F)n2)c2ccccc21"
targetortestsystem = "human CB2 (Homo sapiens)"
reported = "63%"

[[record]]
smilesrepresentation = "O=C(c1cnc(N[C@@H]2C[C@H]3CC[C@@H]2C3)nc1C(F)(F)F)N1CCS(=O)(=O)CC1"
targetortestsystem = "human CB2 (Homo sapiens)"
reported = "67%"

[[record]]
smilesrepresentation = "CC(C)c1nc(N[C@@H]2C[C@H]3CC[C@@H]2C3)ncc1C(=O)N1CCOCC1"
targetortestsystem = "human CB2 (Homo sapiens)"
reported = "84%"

[[record]]
smilesrepresentation = "O=C(c1cnc(NC23CCC(CC2)CC3)nc1C(F)(F)F)N1CCS(=O)(=O)CC1"
targetortestsystem = "human CB2 (Homo sapiens)"
reported = "70%"

[[record]]
smilesrepresentation = "CC(C)c1nc(N[C@H]2C[C@@H]3CC[C@H]2C3)ncc1C(=O)N1CCOCC1"
targetortestsystem = "human CB2 (Homo sapiens)"
reported = "74%"

[[record]]
smilesrepresentation = "CC(C)(C)c1nc(N[C@@H]2C[C@H]3CC[C@@H]2C3)ncc1C(=O)N1CCOCC1"
targetortestsystem = "human CB2 (Homo sapiens)"
reported = "99%"

[[record]]
smilesrepresentation = "O=C(c1cnc(N[C@@H]2C[C@H]3CC[C@@H]2C3)nc1C1CC1)N1CCS(=O)(=O)CC1"
targetortestsystem = "human CB2 (Homo sapiens)"
reported = "76%"

[[record]]
smilesrepresentation = "FC1(F)CCN(Cc2cnc(N[C@@H]3C[C@H]4CC[C@@H]3C4)nc2C(F)(F)F)CC1"
targetortestsystem = "human CB2 (Homo sapiens)"
reported = "75%"

[[record]]
smilesrepresentation = "O=C(c1cnc(NC23CC4CC(CC(C4)C2)C3)nc1C(F)(F)F)N1CCOCC1"
targetortestsystem = "human CB2 (Homo sapiens)"
reported = "70%"

[[record]]
smilesrepresentation = "CC1(C)[C@@H]2CC[C@@]1(C)[C@@H](Nc1ncc(C(=O)N3CCS(=O)(=O)CC3)c(C(F)(F)F)n1)C2"
targetortestsystem = "human CB2 (Homo sapiens)"
reported = "74%"

[[record]]
smilesrepresentation = "O=C(c1cnc(NC23CC4CC(CC(O)(C4)C2)C3)nc1C(F)(F)F)N1CC(F)(F)C(F)(F)C1"
targetortestsystem = "human CB2 (Homo sapiens)"
reported = "76%"

[[record]]
smilesrepresentation = "O=C(c1cnc(NC23CC4CC(CC(C4)C2)C3)nc1C(F)(F)F)N1CCC(F)(F)CC1"
targetortestsystem = "human CB2 (Homo sapiens)"
reported = "79%"

